Cited source for all entries: the supplement of paper PMC7411054

- Test system: HepG2-TP53BP1-CLTA
- Procedure Details: phenotypically active (imaging signature differs from DMSO and reproducible) at any of 0.3-9 uM (binary (1 = active, 0 = inactive)); higher = active
- Conditions Used: treatment time: 24 h
Structures can show the parent of a compound that is named as a salt.
Allowed answers: active, inactive

Illustrative cases are given below, each with its answer.
Compound | Label
Cc1ccc(N(CC2=NCCN2)c2cccc(O)c2)cc1 | inactive
COc1ccc2c(c1OC)C(=O)O[C@@H]2[C@H]1c2c(cc3c(c2OC)OCO3)CCN1C [Noscapine hydrochloride] | inactive
CC(C)OC(=O)c1cc2c(OCC(O)CNC(C)(C)C)cccc2[nH]1 (stereo not given) | active

Continue with the next compound.
Q. Kindly provide the recorded test outcome for the following compound: NC(=O)c1cn(Cc2c(F)cccc2F)nn1 [rufinamide]
A. inactive
